# protocolNotes: The drug is tested on Odoribacter splanchnicus strain: fecal isolate for biotransformation. The drug concentrations were measured before and after a 12-h incubation by liquid-chromatography-coupled mass spectrometry (LC–MS)
# setupConditions: 2 µM
quantityKind: Bacterial Biotransformation

Use the examples below as a reference point.
molecule	Bacterial Biotransformation
CCOc1ccc2nc(S(N)(=O)=O)sc2c1 [ETHOXZOLAMIDE]	Compound metabolized
CCN(CC)CCNC(=O)c1cc(S(C)(=O)=O)ccc1OC [TIAPRIDE]	Compound NOT metabolized
C[C@H]1O[C@@H](O[C@H]2[C@@H](O)C[C@H](O[C@H]3[C@@H](O)C[C@H](O[C@H]4CC[C@@]5(C)[C@H](CC[C@@H]6[C@@H]5C[C@@H](O)[C@]5(C)[C@@H](C7=CC(=O)OC7)CC[C@]65O)C4)O[C@@H]3C)O[C@@H]2C)C[C@H](O)[C@@H]1O	Compound metabolized
CN1CCN2c3ccccc3Cc3ccccc3C2C1 (configuration not stated)	Compound NOT metabolized
COC(=O)[C@H](c1ccccc1Cl)N1CCc2sccc2C1.O=S(=O)(O)O [CLOPIDOGREL BISULFATE]	Compound metabolized

*Q* Give the measured Bacterial Biotransformation of O=C1CN2Cc3c(ccc(Cl)c3Cl)N=C2N1 [ANAGRELIDE] .
*A* Compound metabolized

*Q* Give the measured Bacterial Biotransformation of CCCCC(=O)O[C@]1(C(=O)CO)[C@@H](C)C[C@H]2[C@@H]3CCC4=CC(=O)C=C[C@]4(C)[C@@]3(F)[C@@H](O)C[C@@]21C [BETAMETHASONE VALERATE] .
*A* Compound metabolized

*Q* Give the measured Bacterial Biotransformation of `N=C(N)NC(=O)Cc1c(Cl)cccc1Cl` .
*A* Compound NOT metabolized

*Q* Give the measured Bacterial Biotransformation of CCCC(=O)Nc1ccc(OCC(O)CNC(C)C)c(C(C)=O)c1 (configuration not stated) .
*A* Compound NOT metabolized

*Q* Give the measured Bacterial Biotransformation of `C[C@]12C=CC(=O)C=C1CC[C@@H]1[C@@H]2C(=O)C[C@@]2(C)[C@H]1CC[C@]2(O)C(=O)CO` .
*A* Compound NOT metabolized

*Q* Give the measured Bacterial Biotransformation of `COc1ccc([C@@H]2Sc3ccccc3N(CCN(C)C)C(=O)[C@@H]2OC(C)=O)cc1` .
*A* Compound NOT metabolized

*Q* Give the measured Bacterial Biotransformation of CCN1CCCC1CNC(=O)c1cc(S(=O)(=O)CC)c(N)cc1OC (configuration not stated) [AMISULPRIDE] .
*A* Compound NOT metabolized

*Q* Give the measured Bacterial Biotransformation of `CCOC(=O)C1=C[C@]2(CC)CCCN3CCc4c(n1c1ccccc41)[C@@H]32` .
*A* Compound NOT metabolized

*Q* Give the measured Bacterial Biotransformation of `COc1ccc2c(c1OC)C(=O)O[C@@H]2[C@H]1c2c(cc3c(c2OC)OCO3)CCN1C` .
*A* Compound metabolized

*Q* Give the measured Bacterial Biotransformation of CCN(CC)C(C)CN1c2ccccc2Sc2ccccc21 (configuration not stated) .
*A* Compound metabolized

*Q* Give the measured Bacterial Biotransformation of COc1cc(C(=O)NCc2ccc(OCCN(C)C)cc2)cc(OC)c1OC [TRIMETHOBENZAMIDE] .
*A* Compound NOT metabolized

*Q* Give the measured Bacterial Biotransformation of CC(C)NCC(O)c1ccc(NS(C)(=O)=O)cc1 (configuration not stated) .
*A* Compound NOT metabolized
